Test: Secretion counterscreen for inhibitors of the SERCaMP assay screened against the NCATS CANVASS Library (AID 1347390);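 further: light from luciferase secreted into medium read as a measure of general secretion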
Details: SH-SY5Y constitutive GLuc secretion, luminescence, 20 h; series mostly up to 76.6 µM
Inconclusive results are not listed. Calls of active or inactive are those of the source. The call rests on the fitted dose curve; in most records, active means well fitted inhibition curve with a large enough effect; inconclusive means small, poorly fitted or top-dose-only effect; inactive means no such curve, though single readings can be large or run the other way.
Give your call using only these classes: active, inactive

{"compound": "C=C(C)C(=O)O[C@H]1C[C@@]2(C)OC(=CC2=O)/C(C)=C\\[C@H]2OC(=O)C(=C)[C@H]12", "classLabel": "active"}
{"compound": "[C-]#[N+][C@@]12C(=O)[C@@H]3[C@@H](O[C@@]4(C(=O)N(C)c5cccc1c54)C3(C)C)C(=O)[C@@]2(C)C=C", "classLabel": "inactive"}
{"compound": "C/C=C(/CO)C(=O)O[C@@H]1[C@H](O)[C@@H](C(=O)OC)O[C@@H]2C[C@H]3OC(n4cnc5c(N)ncnc54)[C@H](OC)[C@H]3O[C@@]12O (stereo partly drawn)", "classLabel": "inactive"}

query: Lab log entry: C=C(Cl)[C@](Cl)(CBr)CC[C@@H](Br)C(C)(C)Cl — outcome as called in the assay?
result: inactive

query: State the result this test recorded for CCC(=O)N[C@@H](C[C@H](C)C(Cl)(Cl)Cl)C(=O)N1C(=O)C=C(OC)[C@@H]1CC(C)C .
result: inactive

query: I'd appreciate the recorded outcome for CC(C)=CC[C@H]1C[C@@]2(CC=C(C)C)C(=O)[C@](CC=C(C)C)(C(=O)C(C(=O)c3ccccc3)=C2O)C1(C)C from this test.
result: inactive

query: Outcome? CN1CC[C@@]2([C@@]34CCN(C)[C@@H]3Nc3ccccc34)c3ccccc3N[C@@H]12
result: inactive

query: Answer briefly: the call reported for O=c1cc(-c2ccc(O)c(O)c2)oc2cc(O[C@@H]3O[C@H](CO)[C@@H](O)[C@H](O)[C@H]3O)cc(O)c12 in this assay.
result: inactive

###

Test: qHTS Assay for Lipid Storage Modulators (AID 1519)
Conditions: Drosophila S3 cells, BODIPY lipid droplet/cell ratio, laser cytometry; measured here: lipid channel max response; cells loaded with oleic acid
Inconclusive results are not listed.
max response less than 20% is 1; max response greater than or equal to 20% is 0.

{"smilesRepresentation": "c1ccc2c(-n3ccnc3)nc(-c3ccoc3)nc2c1", "classLabel": 0}
{"smilesRepresentation": "N#CCCn1c(=O)c(-c2cccc(C#N)c2)nc2cnc(N3CCOCC3)nc21", "classLabel": 1}
{"smilesRepresentation": "COc1ccc(NC(=O)N2CCCC3(CCN(C(=O)c4c(C)noc4C)CC3)C2)cc1", "classLabel": 1}
{"smilesRepresentation": "COc1ccc(C(=O)N2CCC[C@@]3(CCN(C(=O)Nc4ccccc4)C3)C2)cc1", "classLabel": 0}

query: Quick check: max response of CS(=O)(=O)Nc1cccc(-c2ccc3ncnc(NCCN4CCOCC4)c3c2)c1 under 20%?
result: 1

query: Determine whether this compound shows max response lower than 20% (ties excluded): CN(C)C(=O)c1ccc(-c2nc(NC3CCNCC3)c3ccccc3n2)cc1
result: 1

query: Criterion: max response strictly below 20%. Is it met by O=C(c1ccco1)N1CCC2(CC1)CN(C(c1ccccc1)c1ccccc1)C2 ?
result: 1

query: Does this compound meet the criterion max response < 20%? CC(=O)N1CCC[C@@]2(CCN(Cc3ccccc3)C2)C1
result: 1
